biological target: T1, murine BACE1 ECD; test: Octet, pH 5.0
T1 construct: analyte of the Octet assay (200 nM) and enzyme of the first short substrate assay
T1 sequence (single chain, as listed by the source limits assumed): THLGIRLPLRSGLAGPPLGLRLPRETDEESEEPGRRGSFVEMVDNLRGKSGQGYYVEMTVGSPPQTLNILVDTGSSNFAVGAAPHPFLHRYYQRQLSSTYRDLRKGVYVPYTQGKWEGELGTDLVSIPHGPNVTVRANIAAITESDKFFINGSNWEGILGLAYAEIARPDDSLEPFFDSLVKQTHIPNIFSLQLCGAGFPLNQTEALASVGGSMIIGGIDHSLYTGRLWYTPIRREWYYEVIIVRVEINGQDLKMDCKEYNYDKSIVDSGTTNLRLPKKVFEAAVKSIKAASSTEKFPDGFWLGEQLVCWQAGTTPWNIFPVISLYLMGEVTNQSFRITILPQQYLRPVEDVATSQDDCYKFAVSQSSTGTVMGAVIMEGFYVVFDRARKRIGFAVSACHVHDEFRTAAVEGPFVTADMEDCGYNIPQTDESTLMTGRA
Outcome Measure: Kd (pM)
# value in pM; strip the unit string

According to the records, this binder 6311 (antibody, V domains shown, anti-BACE1 IgG) VH: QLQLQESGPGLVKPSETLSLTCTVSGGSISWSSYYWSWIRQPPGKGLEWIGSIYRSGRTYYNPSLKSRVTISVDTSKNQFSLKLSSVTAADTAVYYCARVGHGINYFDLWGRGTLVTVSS VL: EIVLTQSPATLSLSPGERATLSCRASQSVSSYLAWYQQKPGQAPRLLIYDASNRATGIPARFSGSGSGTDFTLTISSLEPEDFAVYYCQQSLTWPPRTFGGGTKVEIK displays Kd of 210
